# tested_system: T1, Fusion protein of LAG-3 extracellular region and hIgG1 Fc (human)
# T1 construct: Limits of the signal peptide are marked only by lost underlining; also called LAG-3-Fc; LAG-3-Fc fusion protein
# T1 sequence (chain, as listed by the source limits assumed): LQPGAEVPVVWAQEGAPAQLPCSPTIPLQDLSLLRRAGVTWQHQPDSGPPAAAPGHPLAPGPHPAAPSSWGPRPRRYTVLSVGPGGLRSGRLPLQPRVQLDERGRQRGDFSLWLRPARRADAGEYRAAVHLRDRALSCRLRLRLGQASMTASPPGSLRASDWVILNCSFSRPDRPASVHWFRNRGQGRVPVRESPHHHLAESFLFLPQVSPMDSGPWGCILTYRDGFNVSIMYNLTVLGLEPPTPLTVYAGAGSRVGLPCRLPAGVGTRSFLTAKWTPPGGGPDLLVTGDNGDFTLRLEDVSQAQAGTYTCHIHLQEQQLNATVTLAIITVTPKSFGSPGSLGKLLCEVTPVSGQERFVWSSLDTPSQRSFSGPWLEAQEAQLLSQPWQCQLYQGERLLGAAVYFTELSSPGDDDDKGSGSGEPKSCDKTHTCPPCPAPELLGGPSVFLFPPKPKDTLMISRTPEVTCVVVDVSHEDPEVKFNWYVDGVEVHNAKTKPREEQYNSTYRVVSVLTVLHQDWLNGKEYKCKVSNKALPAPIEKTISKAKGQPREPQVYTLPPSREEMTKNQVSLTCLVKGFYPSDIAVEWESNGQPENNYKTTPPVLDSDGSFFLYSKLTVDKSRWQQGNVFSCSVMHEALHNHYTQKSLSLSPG
# protocol_text: competition: biotin-LAG-3-Fc binding to fixed Daudi cells, antibody titrated
pIC50: −log10 of the molar value.
Property: pIC50; scope: individual binders

| binder | pIC50 |
| --- | --- |
| Hu303-006 (antibody, human IgG4 S228P, kappa, V domains shown, Humanized mAb303) VH: QVQLVQSGAEVKKPGASVKVSCKASGYTFTDYYMNWVRQAPGQRLEWMGVINPYNGDTAYNQKFKGRVTITRDTSASTAYMELSSLRSEDTAVYYCARDDGYYDYYFDVWGQGTTVTVSS VL: DIQMTQSPSSLSASVGDRVTITCRASQDIGSRLNWYQQKPGKAPKRLIYATSTLDSGVPKRFSGSRSGTDFTLTISSLQPEDFATYYCLQLASSPPTFGGGTKVEIKR | 9.09 |
| Hu303-008 (antibody, human IgG4 S228P, kappa, V domains shown, Humanized mAb303) VH: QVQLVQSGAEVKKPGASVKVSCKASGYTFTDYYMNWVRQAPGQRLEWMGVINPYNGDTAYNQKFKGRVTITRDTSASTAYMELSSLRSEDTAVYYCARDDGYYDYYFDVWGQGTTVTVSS VL: DIQMTQSPSSLSASVGDRVTLTCRASQDIGSRLNWLQQKPGGAFKRLIYATSTLDSGVPKRFSGSRSGTDFTLTISSLQPEDFADYYCLQLASSPPTFGGGTKVEIKR | 9.46 |
| Hu303-013 (antibody, human IgG4 S228P, kappa, V domains shown, Humanized mAb303) VH: QVQLVQSGAEVKKPGASVKVSCKASGYTFTDYYMNWVRQAPGQRLEWMGVINPYNGDTAYNQKFKGRVTITVDKSASTAYMELSSLRSEDTAVYYCTRDDGYYDYYFDVWGQGTTVTVSS VL: DIQMTQSPSSLSASVGDRVTLTCRASQDIGSRLNWLQQKPGGAFKRLIYATSTLDSGVPKRFSGSRSGTDFTLTISSLQPEDFADYYCLQLASSPPTFGGGTKVEIKR | 9.46 |
